# literature pull: Human Factor XIIa (Homo sapiens, UniProt P00748) IC50

Use the examples below as a reference point.
Compound	IC50
Cn1ccc(OCC23CN(C(=O)CCc4ccc(=O)[nH]c4)C(CNc4cccc5c(N)nccc45)(C2)C3)cc1=O	10 to 100 nM
CC(C)n1ccc(CNC(=O)c2nn(-c3cccc(Cl)c3)c3c2CCN(c2ccc4c(c2)C(=O)N(C)CC4)C3=O)n1	100 to 300 nM
CCN(CC)C(=O)c1cccc(N2CCc3c(C(=O)NCC4CC4)nn(-c4cccc(Cl)c4)c3C2=O)c1	10000 to 40000 nM
CN1CCC(CCOc2ccc(CNc3ccc4c(N)nccc4c3)cn2)CC1	300 to 1000 nM
CCCN1CCc2ccc(N3CCc4c(C(=O)NCC5CC5)nn(-c5cccc(Cl)c5)c4C3=O)cc2C1	100 to 300 nM

Find the measured IC50 of CCN1CCc2ccc(N3CCc4c(C(=O)NC5COCC5(C)C)nn(-c5cccc(Cl)c5)c4C3=O)cc2C1 (stereo not shown) with Human Factor XIIa (Homo sapiens, UniProt P00748) as test system.
100 to 300 nM

Report IC50 under test system Human Factor XIIa (Homo sapiens, UniProt P00748) for Nc1ncc(Cl)c2cc(NCc3ccc(N4CC5(CC(O)c6nccn65)C4)nc3)ccc12 (stereo not shown) .
10000 to 40000 nM

====

pIC50: −log10 of the molar value.
Reported pIC50 on Human Factor XIIa (Homo sapiens) for assorted molecules, compiled from publications.

Check out these entries, answers already filled in.
Molecule	System	pIC50
FC(F)c1nnc2n1CCN(c1ccc(CNc3ccnc4[nH]c(Cl)cc34)cn1)C2	Human Factor XIIa (Homo sapiens)	6.00 to 6.52
CCNC(=O)c1nn(-c2cncc(C)c2)c2c1CCN(c1ccc3c(c1)C(=O)N(C)CC3)C2=O	Human Factor XIIa (Homo sapiens)	5.00 to 5.52
COc1cc(OCC23CCOC(CNc4cccc5c(N)nccc45)(C2)C3)ccn1	Human Factor XIIa (Homo sapiens)	5.52 to 6.00
CN1CCc2ccc(N3CCc4c(C(=O)NC5CCOCC5)nn(-c5cccc(Cl)c5)c4C3=O)cc2C1	Human Factor XIIa (Homo sapiens)	6.00 to 6.52
Nc1nccc2c(NCc3ccnc(N4CCn5ccnc5C4)c3)cccc12	Human Factor XIIa (Homo sapiens)	4.40 to 5.00

Please report pIC50 with Human Factor XIIa (Homo sapiens) for item `Cc1ncccc1CNC(=O)c1nn(-c2cccc(Cl)c2)c2c1CCN(c1ccc3c(c1)CN(CCO)CC3)C2=O` .
7.00 to 8.00

Would you please give the reported pIC50 of COCC(C)N1CCc2ccc(N3CCc4c(C(=O)NCC5CC5)nn(-c5cccc(Cl)c5)c4C3=O)cc2C1 (centres unmarked) with Human Factor XIIa (Homo sapiens)?
6.52 to 7.00

====

Kindly find below IC50 information for Human Factor XIIa (Homo sapiens, UniProt P00748) taken from the literature.

Solved entries:
Compound	IC50
Cn1cc(Cl)c(OCC23CCOC(CNc4cccc5c(N)nccc45)(C2)C3)cc1=O	1 to 3 µM
CC(=O)NCCN1CCc2ccc(N3CCc4c(C(=O)NCC5CC5)nn(-c5cccc(Cl)c5)c4C3=O)cc2C1	0.3 to 1 µM
O=C(OCc1ccccc1)c1nn(-c2cccc(Cl)c2)c2c1CCN(c1cccc(CN3CCCCC3)c1)C2=O	0.3 to 1 µM

Indicate its recorded IC50; the compound in question is Nc1ncc(Cl)c2cc(NCc3cnc(NCC4CCn5ccnc5C4)nc3)ccc12 (stereo not shown)
0.3 to 1 µM
